target: EGFR exon 20 NPG Ins D770_N771 (Ba/F3 cells) (Homo sapiens, UniProt P00533, INS770NPG); construct: expressed in transfected cells; host or cells: Ba/F3 (murine pro-B cells), retroviral transduction, puromycin selection, IL3-independent pool; experiment: Inhibitor activity on EGFR-dependent cell growth (CellTiter-Glo, 72 h), Ba/F3 EGFR exon 20 NPG Ins; assay type: cell-based; conditions: read-out: BaF3 NPG IC50
Sequence (P00533 with tags, fused parts or gaps INS770NPG): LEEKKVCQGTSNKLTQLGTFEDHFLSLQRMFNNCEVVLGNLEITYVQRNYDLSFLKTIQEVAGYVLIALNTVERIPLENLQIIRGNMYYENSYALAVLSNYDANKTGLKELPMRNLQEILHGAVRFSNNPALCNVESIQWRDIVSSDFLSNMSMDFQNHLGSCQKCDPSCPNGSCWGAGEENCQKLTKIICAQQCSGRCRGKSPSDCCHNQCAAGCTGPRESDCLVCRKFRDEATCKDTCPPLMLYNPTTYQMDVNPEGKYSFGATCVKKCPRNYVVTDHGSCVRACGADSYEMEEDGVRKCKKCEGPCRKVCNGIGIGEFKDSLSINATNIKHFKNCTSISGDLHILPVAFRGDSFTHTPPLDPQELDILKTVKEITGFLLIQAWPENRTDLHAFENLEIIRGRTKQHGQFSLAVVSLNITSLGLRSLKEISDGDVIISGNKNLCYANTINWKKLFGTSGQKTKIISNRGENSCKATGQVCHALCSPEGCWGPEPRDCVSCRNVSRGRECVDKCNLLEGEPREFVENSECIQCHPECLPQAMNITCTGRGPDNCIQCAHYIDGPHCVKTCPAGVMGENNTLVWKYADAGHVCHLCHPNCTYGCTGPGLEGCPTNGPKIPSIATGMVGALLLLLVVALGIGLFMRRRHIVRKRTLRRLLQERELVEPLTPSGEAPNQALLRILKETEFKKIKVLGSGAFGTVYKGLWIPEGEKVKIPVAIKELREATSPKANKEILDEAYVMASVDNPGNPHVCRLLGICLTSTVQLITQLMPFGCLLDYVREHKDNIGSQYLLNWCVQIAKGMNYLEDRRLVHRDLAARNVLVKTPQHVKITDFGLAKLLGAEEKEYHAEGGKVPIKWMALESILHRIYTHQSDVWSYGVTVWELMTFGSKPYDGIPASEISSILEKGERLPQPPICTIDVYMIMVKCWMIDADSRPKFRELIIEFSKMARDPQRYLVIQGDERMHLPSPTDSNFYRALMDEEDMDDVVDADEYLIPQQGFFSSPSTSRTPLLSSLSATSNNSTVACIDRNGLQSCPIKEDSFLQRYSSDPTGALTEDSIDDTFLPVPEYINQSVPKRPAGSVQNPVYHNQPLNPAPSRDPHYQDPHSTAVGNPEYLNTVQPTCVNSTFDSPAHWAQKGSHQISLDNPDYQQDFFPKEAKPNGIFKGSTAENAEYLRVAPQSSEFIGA
pIC50: −log10 of the molar value.
Below: a set of entries, each annotated with reported pIC50.

Please review the following examples before continuing.
COc1c(Cl)cccc1Nc1c(-c2ccnc3ccc(OC[C@H]4CCO4)nc23)[nH]c2c1C(=O)NCC2 [compound 734]	> 7.00
COc1c(F)cccc1Nc1c(-c2ccnc3ccc(OC4(C)COC4)nc23)[nH]c2c1C(=O)NCC2 [Compound 788]	> 7.00
COc1c(Cl)cccc1Nc1c(-c2ccnc(NC(=O)c3cccc(F)c3)n2)[nH]c2c1C(=O)NCC2 [compound 102]	6.00 to 7.00
COc1c(Cl)cccc1Nc1c(-c2ccnc3ccc(O[C@H]4CCCOC4)nc23)[nH]c2c1C(=O)NCC2 [compound 741, formic acid]	> 7.00
COc1c(Cl)cccc1Nc1c(-c2ccnc(C)n2)[nH]c2c1C(=O)NCC2 [compound 206]	6.00 to 7.00

Please respond with reported pIC50 (system EGFR exon 20 NPG Ins D770_N771 (Ba/F3 cells) (Homo sapiens, UniProt P00533, INS770NPG)) for COc1c(Cl)cccc1Nc1c(-c2ccnc(C)n2)[nH]c2c1C(=O)NC[C@H]2C[C@@H]1COCCO1 (single isomer, unassigned) [Compound 570] . > 7.00

Using EGFR exon 20 NPG Ins D770_N771 (Ba/F3 cells) (Homo sapiens, UniProt P00533, INS770NPG) as the test system, report measured pIC50 of COc1ccc2nccc(-c3[nH]c4c(c3Nc3cccc(Cl)c3OC)C(=O)NCC4)c2n1 [Compound 149] . > 7.00

State recorded pIC50 with EGFR exon 20 NPG Ins D770_N771 (Ba/F3 cells) (Homo sapiens, UniProt P00533, INS770NPG), entry CCOc1ncc2nccc(-c3[nH]c4c(c3Nc3cccc(Cl)c3OC)C(=O)NCC4)c2n1 [compound 827] , no comment. > 7.00

Please indicate recorded pIC50 of C=CC(=O)N1CCC2(CC1)CNC(=O)c1c2[nH]c(-c2ccncc2F)c1Nc1cccc(Cl)c1CC [Compound 558] measured with EGFR exon 20 NPG Ins D770_N771 (Ba/F3 cells) (Homo sapiens, UniProt P00533, INS770NPG). > 7.00

Give measured pIC50 for COc1c(F)cccc1Nc1c(-c2ccnc(-c3ccccc3)c2)[nH]c2c1C(=O)NCC2 [Compound 159] (EGFR exon 20 NPG Ins D770_N771 (Ba/F3 cells) (Homo sapiens, UniProt P00533, INS770NPG)). < 6.00

Provide pIC50, tested on EGFR exon 20 NPG Ins D770_N771 (Ba/F3 cells) (Homo sapiens, UniProt P00533, INS770NPG), for COc1c(F)cccc1Nc1c(-c2ccncn2)[nH]c2c1C(=O)NC[C@H]2C[C@@H]1COCCO1 [Compound 569] . > 7.00

// fetch pIC50; item: COc1c(F)cccc1Nc1c(-c2ccnc3ccc(NC(C)(C)C)nc23)[nH]c2c1C(=O)NCC2 [Compound 694] ; system: EGFR exon 20 NPG Ins D770_N771 (Ba/F3 cells) (Homo sapiens, UniProt P00533, INS770NPG) > 7.00

Recall the reported pIC50 of COc1c(F)cccc1Nc1c(-c2ccncc2F)[nH]c2c1C(=O)NC[C@@H]2CC1COC1 [469b] on EGFR exon 20 NPG Ins D770_N771 (Ba/F3 cells) (Homo sapiens, UniProt P00533, INS770NPG) and write it down. < 6.00

// fetch pIC50; item: COc1c(F)cccc1Nc1c(-c2ccnc3ccc(OC4CC4)nc23)[nH]c2c1C(=O)NCC2 [Compound 696, trifluoroacetic acid] ; system: EGFR exon 20 NPG Ins D770_N771 (Ba/F3 cells) (Homo sapiens, UniProt P00533, INS770NPG) > 7.00

Fill: pIC50 (EGFR exon 20 NPG Ins D770_N771 (Ba/F3 cells) (Homo sapiens, UniProt P00533, INS770NPG)) for this molecule COc1c(Cl)cccc1Nc1c(-c2ccnc(Nc3cnn(C)c3)n2)[nH]c2c1C(=O)NCC2 [compound 109] > 7.00

These measurements were taken from patent US20240101576A1.
